These measurements were taken from patent US10059674B2.

# ASSAY_COMMENT: in vitro
# CONDITION: rat, microsomes, pH 7.47
MEASUREMENT_LABEL: microsomal CLint at 1 µM (µL/min/mg)
Write it as a number; the unit µL/min/mg goes unstated.

CCOc1cccc(Nc2nn(C)c3c2Cc2cc(OCC)c(OCC(N)=O)cc2-3)c1 :: 24.4
CCOc1cccc(Nc2nn(C)c3c2Cc2cc(OCC)c(OCC(=O)NO)cc2-3)c1 :: 57.7

API: the following record is the query input.
Which microsomal CLint at 1 µM is reported for this molecule? COc1ccc2[nH]c([S+]([O-])Cc3ncc(C)c(OC)c3C)nc2c1 (stereo not drawn) [omeprazole, reference compound]
88.3

###

# ASSAY_COMMENT: In vivo pharmacokinetic test, drug concentration in blood plasma by LC-MS/MS
# Set-up: species or system SD rats
# CONDITION: male, SD, rat, plasma, po, 10 mg/kg, male SD rats, single oral 10 mg/kg, animal 203M
MEASUREMENT_LABEL: Cmax (ng/mL)
Write it as a number; the unit ng/mL goes unstated.

Which Cmax is reported for this compound? CCOc1cccc(Nc2nn(C)c3c2Cc2cc(OCC)c(OCC(N)=O)cc2-3)c1
814

###

# ASSAY_COMMENT: in vitro
# CONDITION: rat, microsomes, pH 7.47
MEASUREMENT_LABEL: half-life at 1 µM (min)
Write it as a number; the unit min goes unstated.

CCOc1cccc(Nc2nn(C)c3c2Cc2cc(OCC)c(OCC(=O)NO)cc2-3)c1 :: 24

API: the following record is the query input.
Which half-life at 1 µM is reported for this molecule? CCOc1cccc(Nc2nn(C)c3c2Cc2cc(OCC)c(OCC(N)=O)cc2-3)c1
56.8

###

# ASSAY_COMMENT: In vivo pharmacokinetic test, drug concentration in blood plasma by LC-MS/MS
# Design: species or system SD rats
# CONDITION: SD, rat, plasma, po, 10 mg/kg, SD rats, oral 10 mg/kg, 1 h, animal 201M
MEASUREMENT_LABEL: concentration at 1 h

Which concentration at 1 h is reported for this compound? CCOc1cccc(Nc2nn(C)c3c2Cc2cc(OCC)c(OCC(N)=O)cc2-3)c1
869 ng/mL

###

# ASSAY_COMMENT: In vivo pharmacokinetic test, drug concentration in blood plasma by LC-MS/MS
# Design: species or system SD rats
# CONDITION: male, SD, rat, plasma, po, 10 mg/kg, male SD rats, single oral 10 mg/kg, animal 202M
MEASUREMENT_LABEL: Cmax (ng/mL)
Write it as a number; the unit ng/mL goes unstated.

Which Cmax is reported for this compound? CCOc1cccc(Nc2nn(C)c3c2Cc2cc(OCC)c(OCC(N)=O)cc2-3)c1
1720

###

# ASSAY_COMMENT: In vivo pharmacokinetic test, drug concentration in blood plasma by LC-MS/MS
# Set-up: species or system SD rats
# CONDITION: male, SD, rat, plasma, iv, 1 mg/kg, male SD rats, single intravenous 1 mg/kg, animal 101M
# From the text: 2. Test animal: SD rats, which are 284-304 g before the test, and bought from Shanghai Xipuer-Bikai laboratory animal Co., Ltd. with production license No. SCXK (Hu) 2013-0016, and laboratory animal certificate Nos. 2008001658223 and 2008001658296. […] The content of compound LL-01 in SD rat blood plasma is detected by use of LC-MS/MS method. […]
MEASUREMENT_LABEL: AUC(0-t)
Please don't drop the unit; write it after the number.

Which AUC(0-t) is reported for this compound? CCOc1cccc(Nc2nn(C)c3c2Cc2cc(OCC)c(OCC(N)=O)cc2-3)c1
3090 ng·h/mL
